Item-by-item account of inhibition
# MEASUREMENT TARGET: Serine/threonine-protein kinase pim-2 (Homo sapiens) (UniProt Q9P1W9);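 also: reported value is the mean percent inhibition of PIM2, measured in the GSK PKIS kinase inhibitor set screen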
# Sequence (Q9P1W9 whole entry, looked up): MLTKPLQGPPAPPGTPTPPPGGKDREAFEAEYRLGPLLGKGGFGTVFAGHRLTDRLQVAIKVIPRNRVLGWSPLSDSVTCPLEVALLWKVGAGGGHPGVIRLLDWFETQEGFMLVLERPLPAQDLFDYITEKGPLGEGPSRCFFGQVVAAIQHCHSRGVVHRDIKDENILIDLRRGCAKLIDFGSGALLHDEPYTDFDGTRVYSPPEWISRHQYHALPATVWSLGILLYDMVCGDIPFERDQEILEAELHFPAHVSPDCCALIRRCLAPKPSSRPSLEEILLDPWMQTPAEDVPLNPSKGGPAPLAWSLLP
# CONDITION LABEL: at 0.1 µM
PROPERTY LABEL: inhibition (%)

>>> data_value("NS(=O)(=O)c1ccc(N/N=C2\\C(=O)Nc3ccc(Cl)cc32)cc1")
-0.27
>>> data_value("NS(=O)(=O)c1ccc(Nc2cc(-c3cccc(O)c3)n[nH]2)cc1")
0.62
>>> data_value("Nc1ccc(C#Cc2cncnc2Nc2ccc(OCc3cccc(F)c3)c(Cl)c2)cc1")
0.43
>>> data_value("Cc1ccc2c(-c3ccnc(Nc4cccc(C(F)(F)F)c4)n3)c(-c3ccccc3)nn2n1")
-0.26
>>> data_value("O=C(Nc1ccc(Oc2ccc3[nH]c(NC(=O)c4ccco4)nc3c2)cc1)Nc1cc(C(F)(F)F)ccc1F")
-3.36
>>> data_value("CCOc1nccc2c1nc(-c1nonc1N)n2CC")
0.25
>>> data_value("N#Cc1cccc(Nc2nccc(-c3cnn4ncccc34)n2)c1")
0.59
>>> data_value("[O-][S+]1CCN(Cc2ccc(-c3ccc4ncnc(Nc5ccc(OCc6ccccc6)c(Cl)c5)c4c3)o2)CC1")
0.46
>>> data_value("FC(F)(F)c1ccc(-c2nn3ncccc3c2-c2ccnc(Nc3ccc4c(c3)OCCO4)n2)cc1")
6.45
>>> data_value("Cc1ccc2c(c1)/C(=N/Nc1ccc(S(N)(=O)=O)cc1)C(=O)N2")
0.28

---

# MEASUREMENT TARGET: Ribosomal protein S6 kinase alpha-1 (Homo sapiens) (UniProt Q15418);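 also: mean inhibition of RSK1, reported in the GSK PKIS screen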
# Sequence (Q15418 whole entry): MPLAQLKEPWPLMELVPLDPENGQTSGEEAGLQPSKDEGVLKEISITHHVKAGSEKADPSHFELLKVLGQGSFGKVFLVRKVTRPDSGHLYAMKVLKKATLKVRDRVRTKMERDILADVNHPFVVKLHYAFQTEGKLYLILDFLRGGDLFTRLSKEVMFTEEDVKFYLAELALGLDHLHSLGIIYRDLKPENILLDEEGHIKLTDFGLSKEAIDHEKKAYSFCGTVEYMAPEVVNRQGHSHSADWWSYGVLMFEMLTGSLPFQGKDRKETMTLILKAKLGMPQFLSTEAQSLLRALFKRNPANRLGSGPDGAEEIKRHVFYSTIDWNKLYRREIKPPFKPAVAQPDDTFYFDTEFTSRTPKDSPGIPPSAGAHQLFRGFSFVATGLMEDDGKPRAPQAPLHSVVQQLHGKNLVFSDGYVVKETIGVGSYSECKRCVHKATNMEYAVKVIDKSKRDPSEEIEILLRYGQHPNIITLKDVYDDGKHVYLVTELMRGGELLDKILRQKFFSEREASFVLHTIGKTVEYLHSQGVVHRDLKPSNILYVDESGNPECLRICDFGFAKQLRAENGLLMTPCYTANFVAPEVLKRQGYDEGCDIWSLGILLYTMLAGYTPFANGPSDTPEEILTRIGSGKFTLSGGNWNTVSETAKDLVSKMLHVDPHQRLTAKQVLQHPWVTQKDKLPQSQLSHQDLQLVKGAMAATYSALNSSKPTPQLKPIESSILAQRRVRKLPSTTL
# CONDITION LABEL: at 1 µM
Classification field: enter Yes for inhibition values not below 3%, No for values below it.

>>> discrete_label("COc1cc(/C=N/Nc2ncnc3c2cnn3C(C)C)ccc1O")
"No"
>>> discrete_label("CN(C)C(=O)O[C@H]1CN[C@H](C#Cc2cc3ncnc(Nc4ccc(OCc5cccc(F)c5)c(Cl)c4)c3s2)C1")
"No"
>>> discrete_label("O=C1Nc2ccc(-c3cccnc3)cc2C1=Cc1cc(Br)c(O)c(Br)c1")
"No"
>>> discrete_label("NS(=O)(=O)c1ccc(NC=C2C(=O)Nc3ccc4ncsc4c32)cc1")
"Yes"
>>> discrete_label("Cc1nc(-c2ccccc2)n2nc(NCCCN3CCOCC3)ncc12")
"Yes"
>>> discrete_label("CC(C)c1ccc2c(c1)NC(=O)/C2=N/Nc1ccc(S(N)(=O)=O)cc1")
"No"
>>> discrete_label("CCn1c(-c2nonc2N)nc2ccc(F)cc21")
"Yes"
>>> discrete_label("N#Cc1cccc(Nc2nccc(-c3cnn4ncccc34)n2)c1")
"Yes"
>>> discrete_label("Cc1ccc2c(c1)/C(=N/Nc1ccc(S(N)(=O)=O)cc1)C(=O)N2")
"No"
>>> discrete_label("O=C1Nc2ccccc2/C1=C/Nc1ccc2[nH]c(=O)[nH]c2c1")
"Yes"

---

# MEASUREMENT TARGET: G protein-coupled receptor kinase 6 (Homo sapiens);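 also: mean percent inhibition of GRK6, GSK PKIS screen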
# CONDITION LABEL: at 0.1 µM
Item-by-item account of inhibition
PROPERTY LABEL: inhibition (%)

>>> data_value("C[C@@H](Oc1cc(-n2cnc3ccc(OCC4CCN(C)CC4)cc32)sc1C(N)=O)c1ccccc1C(F)(F)F")
-1.55
>>> data_value("FC(F)(F)c1ccc(-c2nn3ncccc3c2-c2ccnc(Nc3ccc4c(c3)OCCO4)n2)cc1")
1.14
>>> data_value("NS(=O)(=O)c1ccc(NC=C2C(=O)Nc3ccc4ncsc4c32)cc1")
6.28
>>> data_value("Cc1ccc(O)cc1Nc1ccnc2ccc(S(C)(=O)=O)cc12")
6.06
>>> data_value("NS(=O)(=O)c1ccc(N/N=C2\\C(=O)Nc3ccc(Cl)cc32)cc1")
4.41
>>> data_value("CCn1c(-c2nonc2N)nc2ccc(F)cc21")
9.58
>>> data_value("COC(=O)Nc1nc2cc(Oc3ccc(NC(=O)Nc4cccc(Br)c4)cc3)ccc2[nH]1")
4.28
>>> data_value("Cc1ccc2c(c1)/C(=N/Nc1ccc(S(N)(=O)=O)cc1)C(=O)N2")
-0.52
>>> data_value("CCOc1nccc2c1nc(-c1nonc1N)n2CC")
4.85
>>> data_value("[O-][S+]1CCN(Cc2ccc(-c3ccc4ncnc(Nc5ccc(OCc6ccccc6)c(Cl)c5)c4c3)o2)CC1")
-0.03
